biological target: SLC41A1 (human); test: split-ubiquitin method screen (DUALmembrane SU-YTH) for SLC41A1 complex-forming partners
Sequence (chain, as listed by the source limits assumed): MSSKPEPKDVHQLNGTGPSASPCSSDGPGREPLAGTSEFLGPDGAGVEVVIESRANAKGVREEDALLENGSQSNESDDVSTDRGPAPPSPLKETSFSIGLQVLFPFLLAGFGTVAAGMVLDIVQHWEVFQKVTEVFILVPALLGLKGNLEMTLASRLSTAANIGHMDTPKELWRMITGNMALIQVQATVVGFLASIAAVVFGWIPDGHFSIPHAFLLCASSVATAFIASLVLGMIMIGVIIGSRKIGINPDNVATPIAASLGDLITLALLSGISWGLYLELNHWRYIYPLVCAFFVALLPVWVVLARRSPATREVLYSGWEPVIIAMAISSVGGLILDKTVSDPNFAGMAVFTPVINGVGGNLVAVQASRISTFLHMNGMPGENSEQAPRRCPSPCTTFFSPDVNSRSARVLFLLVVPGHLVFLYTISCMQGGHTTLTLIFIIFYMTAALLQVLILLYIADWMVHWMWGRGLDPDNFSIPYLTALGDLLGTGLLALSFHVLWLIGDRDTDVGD
PROPERTY: occurrence

UPF0480 protein C15orf24 homolog (other) SEVPGAAAEGSGGSGVGIGDRFKIEGRAVVPGVKPQDWISAARVLVDGEEHVGFLKTDGSFVVHDIPSGSYVVEVVSPAYRFDPVRVDITSKGKMRARYVNHIKTSEVVRLPYPLQMKSSGPPSYFIKRESWGWTDFLMNPMVMMMVLPLLIFVLLPKVVNTSDPDMRREMEQSMNMLNSNHELPDVSEFMTRLFSSKSSGKSSSGSSKTGKSGAGKRR : 1 clones
Immediate early response 3-interacting protein 1 (other) MAFTLYSLLQAALLCVNAIAVLHEERFLKNIGWGTDQGIGGFGEEPGIKSQLMNLIRSVRTVMRVPLIIVNSIAIVLLLLFG : 3 clones
ATP synthase subunit a (Homo sapiens) (other) MNENLFASFIAPTILGLPAAVLIILFPPLLIPTSKYLINNRLITTQQWLIKLTSKQMMTMHNTKGRTWSLMLVSLIIFIATTNLLGLLPHSFTPTTQLSMNLAMAIPLWAGTVIMGFRSKIKNALAHFLPQGTPTPLIPMLVIIETISLLIQPMALAVRLTANITAGHLLMHLIGSATLAMSTINLPSTLIIFTILILLTILEIAVALIQAYVFTLLVSLYLHDNT : 1 clones
